measurementKind: melting point

Problem: Any idea what melting point was measured for CC(C)(C)OC(=O)CONC(=O)c1ccc(C(=O)C(C)(C)C)cc1 ?
Solution: 87 to 88 °C

Problem: Any idea what melting point was measured for CS(=O)(=O)N(Cc1ccncc1)Cc1ccccc1F ?
Solution: 69 to 70 °C

Problem: Any idea what melting point was measured for NCCCN(CC1COc2ncccc2O1)c1ccc(Cl)nn1 (stereo not given) ?
Solution: 101 °C

Problem: Any idea what melting point was measured for CN1Cc2c(C#Cc3ccccc3)ncn2-c2cccc(Cl)c2C1=O ?
Solution: 205 to 206 °C

Problem: Any idea what melting point was measured for Cc1c(S(=O)(=O)Nc2ccc(-c3nc(C(=O)O)cs3)cc2S(C)(=O)=O)sc2ccc(F)cc12 ?
Solution: 257 to 258 °C

Problem: Any idea what melting point was measured for Cn1cnc2c1c(=O)n(CCCCCCO)c(=O)n2C ?
Solution: 98 to 100 °C

Problem: Any idea what melting point was measured for O=C(Nc1nc(C(F)(F)F)c(Cl)s1)c1ccc(Cl)c([N+](=O)[O-])c1 ?
Solution: 183 to 184 °C

Problem: Any idea what melting point was measured for CCOc1cc2cc(CO)c(CO)c(-c3ccncc3)c2cc1OCC ?
Solution: 159 to 161 °C

Problem: Any idea what melting point was measured for Cc1ccn(-c2nc(Cl)c([N+](=O)[O-])s2)n1 ?
Solution: 153 °C

Problem: Any idea what melting point was measured for COc1ccc([C@@H]2CCc3cc(OC)ccc3[C@@H]2CCn2ccnc2)cc1 (relative stereo) ?
Solution: 121 °C

###

Kindly state melting point for each of the entries shown.

Problem: Any idea what melting point was measured for O=C(O)C(=O)CC(=O)c1cccn1Cc1ccccc1Br ?
Solution: 176 to 180 °C

Problem: Any idea what melting point was measured for Cc1cc(C)n(C(=O)CCNS(=O)(=O)c2ccccc2)n1 ?
Solution: 113 to 115 °C

Problem: Any idea what melting point was measured for Cc1ccc(Oc2ccc(Br)cc2O)c(O)c1 ?
Solution: 95 to 97 °C

Problem: Any idea what melting point was measured for CCOC(=O)Cc1cccc(C(=O)c2ccc(Cl)cc2)c1N ?
Solution: 101 to 102 °C

###

measurementKind: melting point

Problem: Any idea what melting point was measured for O=[N+]([O-])c1cccc(-c2nc3ccc(OC(F)(F)F)cc3[nH]2)c1 ?
Solution: 193 to 195 °C

Problem: Any idea what melting point was measured for CCn1nc(C(N)=O)cc1CC(C)C ?
Solution: 125 to 126 °C

Problem: Any idea what melting point was measured for CCOC(=O)NNC(=S)NC ?
Solution: 117 °C

###

Kindly state melting point for each of the entries shown.

Problem: Any idea what melting point was measured for CC(C)(C)c1cc(C=C2CCN(CCO)C2=O)cc(C(C)(C)C)c1O ?
Solution: 191 °C

Problem: Any idea what melting point was measured for CN(CCN[C@H]1CC[C@H](c2ccccc2)CC1)c1ccc2[nH]c(=O)oc2c1 ?
Solution: 229 to 234 °C

Problem: Any idea what melting point was measured for CCC(=O)C(C(=O)OC)C(C(=O)c1ccccc1)c1ccc(F)cc1 (stereo unspecified) ?
Solution: 104 to 109 °C

Problem: Any idea what melting point was measured for CCn1ncc2c(NCCc3ccccc3)c3ccccc3nc21 ?
Solution: 157 to 158 °C

Problem: Any idea what melting point was measured for COC(=O)c1ccc(S(C)(=O)=O)c(-c2ccon2)c1C ?
Solution: 87 to 89 °C

Problem: Any idea what melting point was measured for O=C(OC(=O)N(c1ccccc1)c1ccccc1)N(c1ccccc1)c1ccccc1 ?
Solution: 159 to 162 °C
